Target: 17β-HSD3 (Homo sapiens, UniProt P37058)
Construct: expressed in transfected cells; host or cells: HEK-293 (transient, calcium phosphate), intact cells
Sequence (P37058 whole entry): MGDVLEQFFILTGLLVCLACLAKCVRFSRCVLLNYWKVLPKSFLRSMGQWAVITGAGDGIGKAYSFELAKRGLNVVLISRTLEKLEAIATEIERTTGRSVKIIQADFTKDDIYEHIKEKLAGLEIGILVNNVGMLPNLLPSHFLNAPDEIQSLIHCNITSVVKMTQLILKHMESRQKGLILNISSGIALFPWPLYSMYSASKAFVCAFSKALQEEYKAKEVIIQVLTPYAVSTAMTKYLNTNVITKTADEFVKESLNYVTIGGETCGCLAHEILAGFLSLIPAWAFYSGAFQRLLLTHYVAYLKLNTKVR
Assay: 17β-HSD3 activity in intact transfected HEK-293 cells
Assay type: cell-based
Conditions: intact cells

[
  {
    "SMILES": "Cc1cc(C)c(S(=O)(=O)Nc2cccc(O)c2)cc1C",
    "17β-HSD3 inhibition (in words)": "weak 17β-HSD3 inhibitors"
  },
  {
    "SMILES": "Cc1cc(S(=O)(=O)Nc2cccc(O)c2)c(C)cc1Cl",
    "17β-HSD3 inhibition (in words)": "weak 17β-HSD3 inhibitors"
  }
]
